The values you see were collected from patent US10519114B2.

UniProt:P33535: recorded Ki for assorted molecules
Sequence (P33535 whole entry): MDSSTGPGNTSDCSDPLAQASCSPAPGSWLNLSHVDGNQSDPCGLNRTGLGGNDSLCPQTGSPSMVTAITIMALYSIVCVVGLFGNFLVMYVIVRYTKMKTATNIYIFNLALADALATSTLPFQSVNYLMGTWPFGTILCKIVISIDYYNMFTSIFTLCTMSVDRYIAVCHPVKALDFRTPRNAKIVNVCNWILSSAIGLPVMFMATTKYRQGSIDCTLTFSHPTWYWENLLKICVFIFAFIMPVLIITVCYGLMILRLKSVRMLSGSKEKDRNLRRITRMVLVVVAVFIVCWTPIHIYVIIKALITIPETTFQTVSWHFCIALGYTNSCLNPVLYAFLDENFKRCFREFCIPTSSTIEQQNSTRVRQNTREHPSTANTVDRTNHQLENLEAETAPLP
Number only, in nM; omit the unit.

Solved cases below.
CC(=O)N1CC[C@@H](NC(=O)[C@@H](N)Cc2c(C)cc(O)cc2C)c2cc(-c3ccccc3)ccc21
0.88
COc1cccc2c1CC(Cc1ccc3c(c1)[C@H](NC(=O)[C@@H](N)Cc1c(C)cc(O)cc1C)CCN3)C2 (stereo partly shown)
0.09
Cc1cc(O)cc(C)c1C[C@H](N)C(=O)N[C@@H]1CCNc2cc(O)c(Cc3ccccc3)cc21
0.33
CC(=O)N1CC[C@@H](NC(=O)[C@@H](N)Cc2c(C)cc(O)cc2C)c2cc(Cc3ccccc3)cc(Br)c21
0.49
Cc1cc(O)cc(C)c1C[C@H](N)C(=O)N(C1CC1)C1CCNc2ccc(Cc3ccccc3)cc21 (stereo partly shown)
5.33
Cc1cc(O)cc(C)c1C[C@H](N)C(=O)N[C@@H]1CCN(C)c2ccc(Cc3ccccc3)cc21
0.555

Note: attention shifts to another entry.
Measured Ki for this entry "COc1cc2c(cc1Cc1ccccc1)[C@H](NC(=O)[C@@H](N)Cc1c(C)cc(O)cc1C)CCN2" on UniProt:P33535: 0.26
